Each recorded value in this set is attributed to paper PMC8285372.

ASSAY TARGET: soluble HLA-A*11:01 class I molecule (fluorescence polarization assay)
PROTOCOL: fluorescence polarisation
ENDPOINT NAME: IC50 (µM)

BINDER	ENDPOINT NAME	RESULT VALUE
ALLAVGATK [gp17-25 peptide, Melanocyte protein PMEL]	IC50	0.225
VVVGARGVGK [KRAS G12R 7-16 peptide]	IC50	0.566
VVGARGVGK [KRAS G12R 8-16 peptide]	IC50	0.634
